From: paper PMC7099630

experimentNotes: Stability of chloroquine in miniature pig plasma QC samples under different storage conditions
Type: in vitro ADME
testParameters: miniature pig, miniature pig plasma (spiked QC samples); LQC (3 ng/ml); -20°C to room temperature, three cycles; read-out: Freeze–thaw stability (3 cycles), Recovery (mean ± SD, %)
measuredAttribute: recovery at 3 ng/ml (%)
Express your answer in %, writing the number without its unit.

[ask] // lookup recovery at 3 ng/ml for CCN(CC)CCCC(C)Nc1ccnc2cc(Cl)ccc12 (stereo not shown)
[reply] 106

* * *

experimentNotes: PK study in Wuzhishan miniature pigs after a single oral dose, plasma by HILIC-MS/MS
Format: in vivo, Wuzhishan miniature pig
testParameters: Wuzhishan miniature pig, pig; average, single oral dose 0.2 g, healthy miniature pigs, plasma
measuredAttribute: Tmax (h)
Could you give me the number in h? Just the number is fine.

[ask] Need Tmax, item CCN(CC)CCCC(C)Nc1ccnc2cc(Cl)ccc12 (stereo not shown) [chloroquine]
[reply] 3

* * *

experimentNotes: Stability of chloroquine in miniature pig plasma QC samples under different storage conditions
Assay type: in vitro ADME
testParameters: miniature pig; LQC (3 ng/ml); processed samples in autosampler for 24 h; read-out: Processed stability (24 h), Recovery (mean ± SD, %)
measuredAttribute: recovery at 24 h, 3 ng/ml (%)
Supply the numeric figure in %, leaving out any unit text.

[ask] Query (compound): CCN(CC)CCCC(C)Nc1ccnc2cc(Cl)ccc12 (stereo not shown) [chloroquine] ; field requested: recovery at 24 h, 3 ng/ml
[reply] 98.9

* * *

experimentNotes: Stability of chloroquine in miniature pig plasma QC samples under different storage conditions
Type: in vitro ADME
testParameters: miniature pig plasma (spiked QC samples), LQC (3 ng/ml), plasma QC standing prior to preparation, read-out: Benchtop stability (8 h), Recovery (mean ± SD, %)
measuredAttribute: recovery at 8 h, 3 ng/ml (%)
// units = %; emit number, no label

[ask] I would be grateful if you could share the reported recovery at 8 h, 3 ng/ml for CCN(CC)CCCC(C)Nc1ccnc2cc(Cl)ccc12 (stereo not shown) .
[reply] 104

* * *

experimentNotes: Stability of chloroquine in miniature pig plasma QC samples under different storage conditions
Format: in vitro ADME
testParameters: miniature pig, miniature pig plasma (spiked QC samples); HQC (75 ng/ml); -20°C to room temperature, three cycles; read-out: Freeze–thaw stability (3 cycles), Recovery (mean ± SD, %)
measuredAttribute: recovery at 75 ng/ml (%)
Kindly answer with a numeric value in %, unit omitted.

[ask] // query recovery at 75 ng/ml value for entry CCN(CC)CCCC(C)Nc1ccnc2cc(Cl)ccc12 (stereo not shown)
[reply] 106

* * *

experimentNotes: PK study in Wuzhishan miniature pigs after a single oral dose, plasma by HILIC-MS/MS
Format: in vivo, Wuzhishan miniature pig
testParameters: Wuzhishan miniature pig, pig; average, single oral dose 0.2 g, healthy miniature pigs (two animals), plasma
measuredAttribute: Cmax (ng/mL)
Write down the numeric answer in ng/mL and omit the unit.

[ask] // returns reported Cmax for input CCN(CC)CCCC(C)Nc1ccnc2cc(Cl)ccc12 (stereo not shown)
[reply] 15

* * *

experimentNotes: PK study in Wuzhishan miniature pigs after a single oral dose, plasma by HILIC-MS/MS
Assay type: in vivo, Wuzhishan miniature pig
testParameters: Wuzhishan miniature pig, pig, plasma; average, single oral dose 0.2 g, healthy miniature pigs, noncompartmental model
measuredAttribute: AUC(0-inf)
Form entry: enter the amount, then its unit.

[ask] Look up AUC(0-inf): CCN(CC)CCCC(C)Nc1ccnc2cc(Cl)ccc12 (stereo not shown)
[reply] 380 ng·h/mL
